species on record: Homo sapiens; test: Selectivity ratio of IC50 for FYN (unknown origin) to IC50 for BTK (unknown origin)
attribute measured: Ratio IC50

a: COCC(=O)N1CCC[C@@H](c2nc(-c3ccc(C(=O)Nc4cc(C(F)(F)F)ccn4)cc3F)c3c(N)nccn23)C1
b: COCC(=O)N1CCO[C@@H](c2nc(-c3ccc(C(=O)Nc4cc(C(F)(F)F)ccn4)cc3F)c3c(N)nccn23)C1
c: CC(C)C(=O)N1CCO[C@@H](c2nc(-c3ccc(C(=O)Nc4cc(C(F)(F)F)ccn4)cc3F)c3c(N)nccn23)C1
d: Nc1nccn2c([C@@H]3CCCN(C4CCOCC4)C3)nc(-c3ccc(C(=O)Nc4cc(C(F)(F)F)ccn4)cc3F)c12
# desc sort on Ratio IC50 across 4 compounds Put the labels in the order asked and list them.
c, b, a, d
(c: 4330, b: 1540, a: 853, d: 127)

---

test: Half life in rat at 10 mg/kg; format: ADME, organism-based; details: in vivo
attribute measured: half-life (h)

record smiles: Nc1nccn2c([C@H]3CN(C4CCOCC4)CCO3)nc(-c3ccc(C(=O)Nc4cc(C(F)(F)F)ccn4)cc3F)c12
attribute measured: half-life
result number: 1.1
--
record smiles: C[C@H]1CO[C@@H](c2nc(-c3ccc(C(=O)Nc4cc(C(F)(F)F)ccn4)cc3F)c3c(N)nccn23)CN1C(=O)C1CC1
attribute measured: half-life
result number: 3.9

1: CC(C)C(=O)N1CCO[C@@H](c2nc(-c3ccc(C(=O)Nc4cc(C(F)(F)F)ccn4)cc3F)c3c(N)nccn23)C1
2: COCC(=O)N1CCO[C@@H](c2nc(-c3ccc(C(=O)Nc4cc(C(F)(F)F)ccn4)cc3F)c3c(N)nccn23)C1
Higher half-life: 1 or 2 ? Answer by quoting the chosen item's label.
1
(1: 2.3 h, 2: 0.8 h)
